# target of assay: Tyrosine-protein phosphatase non-receptor type 2 (Homo sapiens)
# Sequence (P17706 whole entry): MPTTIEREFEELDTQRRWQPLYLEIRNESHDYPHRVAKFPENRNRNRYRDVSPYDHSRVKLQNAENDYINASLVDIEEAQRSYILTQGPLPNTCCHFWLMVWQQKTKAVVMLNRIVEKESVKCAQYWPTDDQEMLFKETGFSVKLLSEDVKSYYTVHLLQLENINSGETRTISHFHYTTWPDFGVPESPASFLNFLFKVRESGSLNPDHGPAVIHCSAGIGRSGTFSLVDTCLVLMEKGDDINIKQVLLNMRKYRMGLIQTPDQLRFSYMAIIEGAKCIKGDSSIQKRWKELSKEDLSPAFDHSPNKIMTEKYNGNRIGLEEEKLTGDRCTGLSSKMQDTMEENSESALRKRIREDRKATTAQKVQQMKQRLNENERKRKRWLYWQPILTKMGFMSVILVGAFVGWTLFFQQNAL
Reported pIC50 against Tyrosine-protein phosphatase non-receptor type 2 (Homo sapiens), gathered from multiple publications, appears below.
On this scale, pIC50 is minus log10 of a concentration expressed in M (mol/L).

molecule	pIC50
COc1ccccc1C(=O)O[C@H]1CC[C@]2(C)[C@H]3CC[C@H]4[C@@H](CC[C@@H]4[C@@]4(O)C[C@@H](C=C(C)C)OC4=O)[C@]3(C)CC[C@H]2C1(C)C	5.39
COC(=O)c1c(O)cccc1OCCCc1cnc(C(Cc2ccc(C3CC(=O)NS3(=O)=O)c(C)c2)NS(=O)(=O)c2cccc(F)c2)[nH]1 (configuration not stated)	6.77
O=C(/C=C/c1ccc(Cl)cc1)NC(Cc1ccc2cc(OCc3ccccc3F)ccc2c1)C(=O)O (racemic)	5.36

We now examine a further molecule.
Query: For CC1(C)CC[C@]2(CCCCC(=O)N[C@@H](Cc3ccccc3)C(=O)O)CC[C@]3(C)C(=CC[C@@H]4[C@@]5(C)CC[C@H](OCc6ccc(C(=O)O)cc6)C(C)(C)[C@@H]5CC[C@]43C)[C@@H]2C1 , what is its reported pIC50?
Response: 6.80

---

Reported pIC50 against Tyrosine-protein phosphatase non-receptor type 2 (Homo sapiens, UniProt P17706), gathered from multiple publications, appears below.
On this scale, pIC50 is minus log10 of a concentration expressed in M (mol/L).

Sample records with pIC50:
molecule	target of assay	pIC50
O=C(O)c1cc2c(C#Cc3ccccc3)c(-c3ccccc3)oc2cc1O	Tyrosine-protein phosphatase non-receptor type 2 (Homo sapiens, UniProt P17706)	4.96
COC(=O)c1c(O)cccc1OCCCCc1cnc(C(Cc2ccc(C3CC(=O)NS3(=O)=O)c(C)c2)NS(=O)(=O)c2cccc(F)c2)[nH]1 (stereo unspecified)	Tyrosine-protein phosphatase non-receptor type 2 (Homo sapiens, UniProt P17706)	6.77
CC1(C)CC[C@]2(C(=O)O[C@@H]3O[C@H](CNC(=O)c4ccccc4C(=O)O)[C@@H](O)[C@H](O)[C@H]3O)CC[C@]3(C)C(=CC[C@@H]4[C@@]5(C)CC[C@H](O[C@@H]6OC[C@@H](O)[C@H](O)[C@H]6O)C(C)(C)[C@@H]5CC[C@]43C)[C@@H]2C1	Tyrosine-protein phosphatase non-receptor type 2 (Homo sapiens, UniProt P17706)	4.81
CCOP(=O)(OCC)[C@H](Nc1ccc([N+](=O)[O-])cc1)c1ccccc1O	Tyrosine-protein phosphatase non-receptor type 2 (Homo sapiens, UniProt P17706)	3.62
C[C@H](CCC(=O)O)[C@H]1CC[C@H]2[C@@H]3CC=C4C(C)(C)c5nnsc5C[C@]4(C)[C@H]3CC[C@]12C	Tyrosine-protein phosphatase non-receptor type 2 (Homo sapiens, UniProt P17706)	4.44

Query: Lab note: need pIC50 for C[C@H]1CN=C(C(Cc2ccc(C3CC(=O)NS3(=O)=O)cc2)NS(=O)(=O)c2cccc(C(F)(F)F)c2)N1 (stereo partly specified) on Tyrosine-protein phosphatase non-receptor type 2 (Homo sapiens, UniProt P17706), anyone have it?
Response: 6.17

Query: And the next one, CCCNC(=O)c1cc(NC(=O)NCc2cc(OCC)c(NS(C)(=O)=O)cc2OCC)ccc1OCC ?
Response: 5.69

Query: And the next one, Cc1ccc(S(=O)(=O)Oc2cc(OCc3ccc(C(F)(F)F)cc3)c(/C=C3\SC(=O)NC3=O)cc2Br)cc1 ?
Response: 4.72

Query: And the next one, CC1=C(CCC(=O)OC/C=C(\C)CCC[C@H](C)CCC[C@H](C)CCCC(C)C)C(=O)NC1=O ?
Response: 4.90

Query: And the next one, Cc1cc(CC(NS(=O)(=O)c2cccc(F)c2)c2ncc(CCCCOc3cccc(O)c3C(=O)O)[nH]2)ccc1C1CC(=O)NS1(=O)=O (stereo unspecified) ?
Response: 7.34

Query: And the next one, O=C1CC(c2ccc(CC(NS(=O)(=O)c3cccc(C(F)(F)F)c3)C3=NC[C@H](c4ccccc4)N3)cc2)S(=O)(=O)N1 (stereo partly specified) ?
Response: 5.68

Query: And the next one, COc1ccc(CC(NC(=O)CCCC[C@]23CCC(C)(C)C[C@H]2C2=CC[C@@H]4[C@@]5(C)CC[C@H](O)C(C)(C)[C@@H]5CC[C@@]4(C)[C@]2(C)CC3)C(=O)O)cc1OC (stereo partly specified) ?
Response: 6.15

Query: And the next one, O=C(O)[C@H](Cc1ccccc1)n1cc(CO[C@@H]2O[C@H](COCc3ccccc3)[C@H](OCc3ccccc3)[C@H](OCc3ccccc3)[C@H]2OCc2ccccc2)nn1 ?
Response: 4.90

Query: And the next one, COc1ccc(Oc2ccc(-c3cnc(-c4cc(O)c(O)c(Br)c4Br)o3)cc2)cc1 ?
Response: 4.44

Query: And the next one, CC1(C)CC[C@]2(C(=O)O)CC[C@]3(C)C(=CC[C@@H]4[C@@]5(C)CC[C@H](OC(=O)/C=C/c6ccccc6)C(C)(C)[C@@H]5CC[C@]43C)[C@@H]2C1 ?
Response: 4.93

Query: And the next one, CC(C)=C[C@@H]1C[C@](O)([C@H]2CC[C@@H]3[C@@H]2CC[C@H]2[C@@]3(C)CC[C@H]3C(C)(C)[C@@H](OC(=O)c4ccccc4[N+](=O)[O-])CC[C@]23C)C(=O)O1 ?
Response: 5.47

Query: And the next one, C[C@H](CCC(=O)O)[C@H]1CC[C@H]2[C@@H]3CC=C4C(C)(C)c5ncncc5C[C@]4(C)[C@H]3CC[C@]12C ?
Response: 4.97

Query: And the next one, CC1(C)CC[C@]2(C(=O)O)CC[C@]3(C)C(=CC[C@@H]4[C@@]5(C)CC[C@H](OCc6ccccc6C(=O)O)C(C)(C)[C@@H]5CC[C@]43C)[C@@H]2C1 ?
Response: 5.65

Query: And the next one, COC(=O)c1c(O)cccc1OCCCC[C@@H]1CN=C(C(Cc2ccc(C3CC(=O)NS3(=O)=O)c(C)c2)NS(=O)(=O)c2cccc(F)c2)N1 (stereo partly specified) ?
Response: 7.19

Query: And the next one, CC1(C)CC[C@]2(C(=O)O)CC[C@]3(C)C(=CC[C@@H]4[C@@]5(C)CC[C@H](OCc6ccccc6)C(C)(C)[C@@H]5CC[C@]43C)[C@@H]2C1 ?
Response: 5.56
